# key: entry, value: Ki
assay-target: UniProt P28223
Sequence (P28223 whole entry): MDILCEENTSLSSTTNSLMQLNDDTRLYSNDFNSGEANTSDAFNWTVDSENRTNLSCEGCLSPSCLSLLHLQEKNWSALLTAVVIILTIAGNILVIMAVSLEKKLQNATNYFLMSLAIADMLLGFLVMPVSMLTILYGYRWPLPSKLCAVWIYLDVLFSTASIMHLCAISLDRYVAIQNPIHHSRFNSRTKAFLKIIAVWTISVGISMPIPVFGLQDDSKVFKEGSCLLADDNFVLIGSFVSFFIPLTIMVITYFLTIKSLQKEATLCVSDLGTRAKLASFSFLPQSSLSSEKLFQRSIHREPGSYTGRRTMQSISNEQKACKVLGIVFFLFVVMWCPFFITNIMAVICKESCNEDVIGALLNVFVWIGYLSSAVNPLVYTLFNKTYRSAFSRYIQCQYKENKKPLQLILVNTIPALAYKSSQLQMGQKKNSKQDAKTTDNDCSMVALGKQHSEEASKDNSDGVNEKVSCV
experimental-protocol: Binding ability of compound at cloned human 5-hydroxytryptamine 2A receptor using [3H]ketanserin as radioligand
quantity-kind: Ki (nM)

INSERT INTO measurements (compound, quantity_kind, experimental_value) VALUES
  ('C[C@@H](N)Cc1c2c(c(Br)c3c1OCC3)OCC2', 'Ki', 10.7),
  ('COc1cc(Br)c2c3c1C[C@H](N)C[C@@H]3CO2', 'Ki', 240);

* * *

Measurement record for Muscarinic acetylcholine receptor M1 (Mus musculus); quantity recorded: K 0.5.
quantity-kind: K 0.5

INSERT INTO assay_data (compound, experimental_value) VALUES
  ('CN1[C@@H]2CC[C@H]1C[C@@H](OC(=O)C(CO)c1ccccc1)C2 (some centres undefined)', '0.6 nM'),
  ('COc1ccc2c3c1C[C@H](N)C[C@@H]3CO2', '149 nM'),
  ('COc1cc(Br)c2c3c1C[C@H](N)C[C@@H]3CO2', '20 nM'),
  ('COc1ccc2c3c1C[C@H](N(C)C)C[C@@H]3CO2', '846 nM');
